For each of the compounds below, state its IC50.
TARGET_SYSTEM: human DGAT1 (Homo sapiens, UniProt O75907)
Construct: (N); made in house; host or cells: Sf9 insect cells infected with recombinant baculovirus BAC-DGAT1; microsome fraction
Sequence (O75907 1-488): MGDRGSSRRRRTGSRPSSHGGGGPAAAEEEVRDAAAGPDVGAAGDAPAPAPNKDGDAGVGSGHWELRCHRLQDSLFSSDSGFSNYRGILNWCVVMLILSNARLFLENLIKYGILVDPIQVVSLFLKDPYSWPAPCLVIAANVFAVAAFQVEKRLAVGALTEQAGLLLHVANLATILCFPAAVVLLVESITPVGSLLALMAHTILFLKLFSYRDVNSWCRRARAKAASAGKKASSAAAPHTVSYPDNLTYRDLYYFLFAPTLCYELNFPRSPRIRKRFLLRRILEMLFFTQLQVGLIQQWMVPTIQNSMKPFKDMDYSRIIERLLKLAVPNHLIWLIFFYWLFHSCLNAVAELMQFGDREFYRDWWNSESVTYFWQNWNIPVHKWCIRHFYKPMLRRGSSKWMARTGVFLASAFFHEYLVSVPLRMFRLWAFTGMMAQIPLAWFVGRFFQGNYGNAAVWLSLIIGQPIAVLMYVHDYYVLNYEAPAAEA
ASSAY_REMARKS: Determination of DGAT inhibitory activity (triglyceride synthesis with DGAT1 high expression Sf9 microsome)
Type: biochemical
PARTICULARS: 25 μM dioleoylglycerol, 25 μM [14C]-Oleoyl-CoA, 32° C., 20 min, read-out: hDGAT1 IC50

Known IC50 results, listed for orientation:
{"columns": ["COMPOUND", "TARGET_SYSTEM", "IC50"],
 "data": [
  ["CC(C)c1nc(C2CCN(C(=O)NCCNC(=O)c3cn(-c4ccccc4)nc3C(F)(F)F)CC2)no1 [Example E225]", "human DGAT1 (Homo sapiens, UniProt O75907)", "0.1 to 1 µM"],
  ["CCCC1CCN(C(=O)NCCNC(=O)c2cn(-c3ccccc3)nc2C(F)(F)F)CC1 [Example E15]", "human DGAT1 (Homo sapiens, UniProt O75907)", "0.01 to 0.1 µM"],
  ["CC(C)c1nnc([C@H]2CC[C@H](C(=O)NCCNC(=O)c3cn(-c4ccccc4Cl)nc3C(F)(F)F)CC2)o1 [Example E234]", "human DGAT1 (Homo sapiens, UniProt O75907)", "0.1 to 1 µM"]
]}

I have 3 compounds here; please give me IC50 for each one.
1. O=C(NCCNC(=O)[C@H]1CC[C@H](c2nc(C3CC3)no2)CC1)c1cn(-c2ccccc2)nc1C(F)(F)F [Example E151]
2. O=C(NCCNC(=O)C1CCc2nc(-c3ccccc3O)sc2C1)c1cn(-c2ccccc2)nc1C(F)(F)F (centres unmarked) [Example E221]
3. O=C(NCCNC(=O)[C@H]1CC[C@H](C(=O)c2ccccc2)CC1)c1cn(-c2ccccc2)nc1C(F)(F)F [Example E65]

Marked response:
["0.01 to 0.1 µM", "0.01 to 0.1 µM", "0.01 to 0.1 µM"]

Reference source: patent US20120065196A1
